experiment: Toxicity liver stage against HepG2, at 10uM; type: cell-based; parameters: test concentration 10 uM, cell line HepG2-A16-CD81EGFP; conditions: human, HepG2-A16-CD81EGFP cells; read-out: INHIBITION
METRIC NAME: cytotoxicity at 10 µM (%)
Output spec: scalar in %, unitless text.

- COMPOUND: "O=C(c1ccc(=O)[nH]c1)N1C[C@H]2CC[C@@H](C1)N(Cc1ccccc1)C2"
  cytotoxicity at 10 µM [%]: -100
- COMPOUND: "CCc1noc(CNc2nc(-c3cccnc3)nc3c2CCNCC3)n1"
  cytotoxicity at 10 µM [%]: 0.562
- COMPOUND: "COc1ccc(-c2c[nH]c(C3CC(=O)N(CC(C)C)C3)n2)cc1 (stereo unspecified)"
  cytotoxicity at 10 µM [%]: 5.35

QUERY: Report cytotoxicity at 10 µM, nothing else, for this compound: O=C(NC1COC2(CCN(CC3CCC3)CC2)C1)c1ccccn1 (stereo unspecified)
RESULT: -1.95

QUERY: Read off the recorded cytotoxicity at 10 µM for Cc1noc(C)c1Cn1cc(I)cc(C)c1=O
RESULT: 4.92

QUERY: Fill in cytotoxicity at 10 µM for record Cn1ccnc1CN1CCCN(C(=O)c2cccc(CC#N)c2)CC1
RESULT: -2.13

QUERY: Annotate the compound COCc1nc(C(=O)N2CCCC(n3nc(C)cc3C)C2)cs1 (stereo unspecified) with its measured cytotoxicity at 10 µM.
RESULT: -8.57

QUERY: Provide measured cytotoxicity at 10 µM value, entry: Cc1n[nH]cc1C(=O)N1CCCC1c1cc[nH]n1 (stereo unspecified)
RESULT: -23.1

QUERY: Give reported cytotoxicity at 10 µM value for O=S(=O)(C1CC1)N1CCO[C@H]2[C@H](OCC3CC3)CC[C@@H]21
RESULT: 5.61

The origin of these recorded values is ChEMBL document CHEMBL4513216.
